System: Trypanosoma cruzi
Assay: Trypanosoma cruzi phosphomannomutase and mannose-1-phosphate guanylyltransferase assay
Type: functional
Parameters: scale not given: direction of the effect not stated beside the values
Conditions: 10 µM
measureName: Percent Effect (%)

> print(dat)
                                    molecule     measurename  outputunit  reading
 1  O=C(c1ccoc1)N1CC[C@@H]2O[C@H](COCc3ccccn3)CC[C@@H]21  Percent Effect           %    -3.42
 2        Cc1csc(N2CCN(C(=O)CCn3cncn3)CC2)n1  Percent Effect           %    0.472
 3  CSCC(C)(O)CNC(=O)c1cc(Br)ccc1Cl (stereo not given)  Percent Effect           %     9.01
 4  O=C1CC(c2ccccc2)C2(CCN(CC3CC3)CC2)N1 (stereo not given)  Percent Effect           %     5.02
 5  c1cnc(N2CCCC(NCc3cccc4c3OCCO4)C2)nc1 (stereo not given)  Percent Effect           %     3.87
 6     Cc1ncccc1OC1(C(=O)NCCCN2CCOCC2)CCNCC1  Percent Effect           %    -5.02
 7  Cc1nc(O)c2nnn(C[C@H]3CCCN3C(=O)CCC3CCCC3)c2n1  Percent Effect           %    -1.78
 8        CCN(C)c1ncnc2c1CCN(Cc1csc(C)n1)CC2  Percent Effect           %    -1.07
 9  Cc1cc2c(=O)n3c(nc2s1)CCN(C(=O)c1cnn(C)c1C)CC3  Percent Effect           %     1.98
10  Cn1ncc2c(NCCOc3ccc(F)cc3)nc(C3CCCC3)nc21  Percent Effect           %     9.79
11  CC(C)(C)c1n[nH]c(C2CN(C(=O)c3cc(C4CC4)on3)CCO2)n1 (stereo not given)  Percent Effect           %     5.55
12         O=C(c1ccn(-c2ccccc2Cl)n1)N1CCSCC1  Percent Effect           %    -6.55
13  COc1ncccc1NC(=O)NCC(O)c1ccc(F)cc1F (stereo not given)  Percent Effect           %    -3.79
14  COc1ccc(CN2CCCC(Nc3cccc(F)c3)C2)cc1O (stereo not given)  Percent Effect           %   -0.293
15       COc1cccc(N2CCN(Cc3ncc[nH]3)CC2=O)c1  Percent Effect           %    -1.85
16          Cc1cnc(CNC(=O)NCc2cccnc2N(C)C)s1  Percent Effect           %    -2.43
17    Cc1nc(C)c(CC(=O)Nc2nnc(C)s2)c(=O)[nH]1  Percent Effect           %     2.82
18   CC(=O)c1cccc(OCCCC(=O)N(C)CCc2ccncc2)c1  Percent Effect           %     3.67
19  CC1CCCN(CCNC(=O)c2ccn(-c3ccccc3)n2)C1 (stereo not given)  Percent Effect           %    -8.05
20       Cn1cnc2c1CCN(Cc1nc(Cc3ccccc3)no1)C2  Percent Effect           %     3.27
21    CCNC(=O)N1CCCCC1CCO (stereo not given)  Percent Effect           %     5.99
22       O=C(CCn1cncn1)NC1(c2cccc(Br)c2)CCC1  Percent Effect           %     3.44
23  Cn1ccnc1CN1CCCCC1Cn1cccn1 (stereo not given)  Percent Effect           %    0.718
24  Cc1occc1C(=O)N1CCc2ncnc(-c3cnn(C)c3)c2CC1  Percent Effect           %     6.75
25  CC(C)N1CCc2c(C#N)c(NCc3ccco3)n3cnnc3c2C1  Percent Effect           %     -3.8

Sourced from ChEMBL document CHEMBL3988442
